# reported IC50; entries follow
assaySystem: human H-PGDS (Homo sapiens (Human), UniProt O60760)
Sequence (O60760 whole entry): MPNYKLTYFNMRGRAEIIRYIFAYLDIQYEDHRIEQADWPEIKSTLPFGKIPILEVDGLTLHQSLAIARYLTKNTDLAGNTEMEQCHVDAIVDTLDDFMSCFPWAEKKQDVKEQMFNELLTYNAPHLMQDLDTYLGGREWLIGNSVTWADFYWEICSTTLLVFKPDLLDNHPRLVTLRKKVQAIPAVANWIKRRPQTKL
protocolNotes: Hematopoietic prostaglandin D synthase (H-PGDS) inhibiting action
Type: biochemical
setupConditions: inhibition concentration at 50% relative to H-PGDS; read-out: IC50
measuredEndpoint: IC50 (nM)

compoundSmiles | measuredEndpoint | observedMeasurement
CCn1cccc1C(=O)N1CCN(C(=O)NC2CCN(c3ccc(C(=O)NCCN4CCOCC4)cc3)CC2)CC1 | IC50 | 39
Cn1cccc1C(=O)N1CCN(C(=O)NC2CCN(c3ccc(C(=O)N4CCCC4)cc3)CC2)CC1 | IC50 | 52
Cn1cccc1C(=O)N1CCN(C(=O)NC2CCN(c3ccc(CCCn4ccnn4)cc3)CC2)CC1 | IC50 | 27
Cn1cccc1C(=O)N1CCN(C(=O)NC2CCN(c3ccc(CCn4ccnn4)cc3)CC2)CC1 | IC50 | 15

---

assaySystem: human H-PGDS (Homo sapiens (Human), UniProt O60760)
protocolNotes: Hematopoietic prostaglandin D synthase (H-PGDS) inhibiting action
Type: biochemical
setupConditions: compound at 0.1 μM, relative to the control group; human H-PGDS, [14C] prostaglandin H2 10 μM; read-out: Inhibition Rate (%) 0.1 μM
# reported inhibition at 0.1 µM; entries follow

compoundSmiles | scaleUnit | inhibition at 0.1 µM
CCn1cccc1C(=O)N1CCN(C(=O)NC2CCN(c3ccc(C(=O)NCCN4CCOCC4)cc3)CC2)CC1 | % | 69.9
CCn1cccc1C(=O)N1CCN(C(=O)NC2CCN(c3ccc(CCn4ccnn4)cc3)CC2)CC1 | % | 68.4
Cn1cccc1C(=O)N1CCN(C(=O)NC2CCN(c3ccc(CCCn4ccnn4)cc3)CC2)CC1 | % | 74.8
Cn1cccc1C(=O)N1CCN(C(=O)NC2CCN(c3ccc(CCn4ccnn4)cc3)CC2)CC1 | % | 75
